These entries and their values trace back to paper PMC10247784.

- System: HEK293T-Gα16gust44 cells transfected with empty vector (mock)
- test method notes: Calcium imaging assay (FLIPR), empty vector control (mock)
- Format: cell-based
- test conditions: Mock, sheet Tas2r108; conc. 0,03 mM
We label by threshold. Values of Δ F/F strictly beneath -0.02 are y. Values of -0.02 and up are n.

## Task Is it true that Δ F/F reported for "C[C@H](CCC(=O)NCCS(=O)(=O)O)[C@H]1CC[C@H]2[C@@H]3[C@H](O)C[C@@H]4C[C@H](O)CC[C@]4(C)[C@H]3C[C@H](O)[C@]12C" is less than -0.02?
## Result n

## Task How about this molecule: "C[C@H](CCC(=O)NCCS(=O)(=O)O)[C@H]1CC[C@H]2[C@@H]3CC[C@@H]4C[C@H](O)CC[C@]4(C)[C@H]3CC[C@]12C"
## Result y

## Task How about this molecule: "C[C@H](CCC(=O)O)[C@H]1CC[C@H]2[C@@H]3CC[C@@H]4C[C@H](O)CC[C@]4(C)[C@H]3C[C@H](O)[C@]12C"
## Result n

## Task How about this molecule: "C[C@H](CCC(=O)O)[C@H]1CC[C@H]2[C@@H]3[C@H](O)C[C@@H]4C[C@H](O)CC[C@]4(C)[C@H]3C[C@H](O)[C@]12C"
## Result y

## Task How about this molecule: "C[C@H](CCC(=O)NCC(=O)O)[C@H]1CC[C@H]2[C@@H]3[C@H](O)C[C@@H]4C[C@H](O)CC[C@]4(C)[C@H]3C[C@H](O)[C@]12C"
## Result y
